- ASSAY NOTES: induction of myeloid progenitor differentiation, primary screen, cell-based, flow cytometry, MLPCN library (AID 624256)
- SETTINGS: ER-HoxA9 myeloid progenitors, lysozyme-GFP differentiation, at 10 µM
Screen size: about 360,000 compounds; about 3,700 (1%) were called active. Roughly 2% stayed inconclusive and do not appear here.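 How the source made its calls: active means normalized GFP-positive differentiation at or above the plate's own cutoff, the solvent-only control mean plus 3 SD; inconclusive means no clear call, values can overlap the other calls; inactive means the rest.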 Many of the other results were omitted from the sample, so actives are more common in it than they were.
Mark one answer only. Choices: T (active), F (inactive)

>>> group("CC(=NCC1CCCO1)c1c(O)n(-c2ccccc2)c(=O)[nH]c1=O (stereo not drawn)")
"F"
>>> group("CNC(=O)O/N=C(\\N)Cc1csc2ccc(Cl)cc12")
"F"
>>> group("CC1CC=CCC12C(=O)NC(=S)NC2=O (stereo not drawn)")
"T"
>>> group("CCOC(=O)[C@]12Cc3cc(OC)ccc3[C@H]1N(C(C)C)C(=O)c1ccccc12")
"F"
>>> group("CC1C2Cn3c(nc4ccccc43)C1N(C)O2 (stereo not drawn)")
"F"

Query :: Tell me the assay call for `CN1CCC[C@@H]1CCO[C@](C)(c1ccccc1)c1ccc(Cl)cc1` please.
Result :: F

Query :: Tell me the assay call for `COc1ccc(N=Cc2c(O)n(C)c(=O)[nH]c2=O)cc1` please.
Result :: F

Query :: Tell me the assay call for `CC(C)Nc1nc(Cl)nc(NC(C)C)n1` please.
Result :: F
